experimentalSystem: CaCyk3
experimentalDetails: SPOT peptide array binding signal intensity (averaged, normalized) (arbitrary units (background-subtracted, floor 0; scale differs between SH3 domains)); higher = stronger binding of the SH3 domain to the peptide
Let's look at some binders and their measured SPOT peptide array binding signal intensity.
Give your answer as a number; write no unit.

Sample answers from the record:
What does the data say about its SPOT peptide array binding signal intensity? Entry: `ALRRRLPVTRSKINW`
53.5

What does the data say about its SPOT peptide array binding signal intensity? Entry: `DAPASKPSVPPRNYF`
34.5

What does the data say about its SPOT peptide array binding signal intensity? Entry: `IRMPSNPALPKKLLN`
15

What does the data say about its SPOT peptide array binding signal intensity? Entry: `VAPPPLPNRQLPNLD`
1

What does the data say about its SPOT peptide array binding signal intensity? Entry: `TSFKGRPKPPKTLKH`
3

What does the data say about its SPOT peptide array binding signal intensity? Entry: `NRPAIRIPSLKKPAL`
7

What does the data say about its SPOT peptide array binding signal intensity? Entry: `IVNKPLPPLPVAGSS`
0.5

What does the data say about its SPOT peptide array binding signal intensity? Entry: `DGNEEKPLLPTRPNK`
7

Next:
What does the data say about its SPOT peptide array binding signal intensity? Entry: `RPKRRAPPPVPKKPS`
55

What does the data say about its SPOT peptide array binding signal intensity? Entry: `PAPPPPPRASRPTPN`
21

What does the data say about its SPOT peptide array binding signal intensity? Entry: `KRRAPPPVPKKPSSR`
458

What does the data say about its SPOT peptide array binding signal intensity? Entry: `RVTRKRPREPKSTND`
169

What does the data say about its SPOT peptide array binding signal intensity? Entry: `ALFRLSFFFPLDPAY`
68

What does the data say about its SPOT peptide array binding signal intensity? Entry: `SRYRRPLTLLLLKPF`
9

What does the data say about its SPOT peptide array binding signal intensity? Entry: `FPGKKSPRLPHRNKK`
4.75

What does the data say about its SPOT peptide array binding signal intensity? Entry: `VSKLRSPNTPRRLRK`
47.2

What does the data say about its SPOT peptide array binding signal intensity? Entry: `HGKRRAPLLLAKLDV`
37

What does the data say about its SPOT peptide array binding signal intensity? Entry: `PSPSSSPPPIPKTAN`
1

What does the data say about its SPOT peptide array binding signal intensity? Entry: `QRIRKIPGIPLMSVG`
49.5
